Test system: MDA231 cells
MEASUREMENT DESCRIPTION: MTT cell viability assay
Type: cell-based, human
RUN CONDITIONS: MDA231, 24 h exposure
QUANTITY MEASURED: IC50 (µM)
Give bare numbers, in µM.

Some compounds with known IC50 results, for comparison:
COMPOUND | IC50 / µM
[Cl][Cu][Cl].c1csc(-c2nc3ccc(-c4ccc5nc(-c6cccs6)c(-c6cccs6)nc5c4)cc3nc2-c2cccs2)c1 [Cu(ttbq)Cl2] | 20.6
[Cl][Cu][Cl].c1ccc(-c2nc3ccc(-c4ccc5nc(-c6ccccn6)c(-c6ccccn6)nc5c4)cc3nc2-c2ccccn2)nc1 [Cu(tpbq)Cl2] | 72.1
[Cl][Pt][Cl].c1csc(-c2nc3ccc(-c4ccc5nc(-c6cccs6)c(-c6cccs6)nc5c4)cc3nc2-c2cccs2)c1 [Pt(ttbq)Cl2] | 85

Please look at the following compound next.
Prompt: Sample [Cl][Pt][Cl].c1ccc(-c2nc3ccc(-c4ccc5nc(-c6ccccn6)c(-c6ccccn6)nc5c4)cc3nc2-c2ccccn2)nc1 [Pt(tpbq)Cl2] — what was its IC50?
Completion: 94.8

* * *

TEST TARGET: human serum albumin (HSA) (Homo sapiens)
MEASUREMENT DESCRIPTION: UV titration with HSA
RUN CONDITIONS: binding to HSA, 310-340 K
Field: ΔS^o (standard entropy change). Provide a value for each of the molecules that follow.
Numbers only, in J/K.

Below, 3 molecules whose answers are already recorded.
STRUCTURE | ΔS^o (standard entropy change) [J/K]
[Cl][Cu][Cl].c1ccc(-c2nc3ccc(-c4ccc5nc(-c6ccccn6)c(-c6ccccn6)nc5c4)cc3nc2-c2ccccn2)nc1 | 458.15
[Cl][Pt][Cl].c1csc(-c2nc3ccc(-c4ccc5nc(-c6cccs6)c(-c6cccs6)nc5c4)cc3nc2-c2cccs2)c1 | 198.00
[Cl][Cu][Cl].c1csc(-c2nc3ccc(-c4ccc5nc(-c6cccs6)c(-c6cccs6)nc5c4)cc3nc2-c2cccs2)c1 | 258.51

Pending molecule:
Prompt: What value of ΔS^o (standard entropy change) has been reported for the following molecule? [Cl][Pt][Cl].c1ccc(-c2nc3ccc(-c4ccc5nc(-c6ccccn6)c(-c6ccccn6)nc5c4)cc3nc2-c2ccccn2)nc1
Completion: 174.97

* * *

TEST TARGET: human serum albumin (HSA) (Homo sapiens)
MEASUREMENT DESCRIPTION: HSA thermal denaturation
Type: binding
RUN CONDITIONS: HSA alone 114°C; 280 nm
QUANTITY MEASURED: melting point of HSA upon addition of the complex (°C)
Answers are plain numbers, in °C.

Look over these answered cases.
STRUCTURE | TEST TARGET | MEASURED VALUE
[Cl][Pt][Cl].c1ccc(-c2nc3ccc(-c4ccc5nc(-c6ccccn6)c(-c6ccccn6)nc5c4)cc3nc2-c2ccccn2)nc1 | human serum albumin (HSA) (Homo sapiens) | 109
[Cl][Cu][Cl].c1ccc(-c2nc3ccc(-c4ccc5nc(-c6ccccn6)c(-c6ccccn6)nc5c4)cc3nc2-c2ccccn2)nc1 | human serum albumin (HSA) (Homo sapiens) | 110
[Cl][Pt][Cl].c1csc(-c2nc3ccc(-c4ccc5nc(-c6cccs6)c(-c6cccs6)nc5c4)cc3nc2-c2cccs2)c1 | human serum albumin (HSA) (Homo sapiens) | 105

With those in mind, consider the next compound.
Prompt: Give the measured melting point of HSA upon addition of the complex of [Cl][Cu][Cl].c1csc(-c2nc3ccc(-c4ccc5nc(-c6cccs6)c(-c6cccs6)nc5c4)cc3nc2-c2cccs2)c1 .
Completion: 111

* * *

TEST TARGET: human serum albumin (HSA) (Homo sapiens, UniProt P02768)
Sequence (P02768 25-609): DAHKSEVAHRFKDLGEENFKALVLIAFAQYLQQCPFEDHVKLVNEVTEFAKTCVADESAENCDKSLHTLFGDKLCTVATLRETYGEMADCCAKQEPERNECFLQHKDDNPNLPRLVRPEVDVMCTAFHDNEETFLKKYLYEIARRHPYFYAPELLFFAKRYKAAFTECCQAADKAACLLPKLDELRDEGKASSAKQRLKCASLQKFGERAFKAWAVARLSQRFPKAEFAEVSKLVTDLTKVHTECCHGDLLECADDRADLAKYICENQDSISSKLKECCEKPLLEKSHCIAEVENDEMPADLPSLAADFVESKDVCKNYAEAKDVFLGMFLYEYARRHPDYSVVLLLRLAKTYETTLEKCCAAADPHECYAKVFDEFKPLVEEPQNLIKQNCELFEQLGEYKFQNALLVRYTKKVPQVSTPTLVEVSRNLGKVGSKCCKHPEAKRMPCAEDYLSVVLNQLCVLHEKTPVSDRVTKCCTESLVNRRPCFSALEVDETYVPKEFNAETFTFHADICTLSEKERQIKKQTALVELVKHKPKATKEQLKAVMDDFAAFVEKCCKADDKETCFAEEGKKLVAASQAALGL
MEASUREMENT DESCRIPTION: HSA fluorescence quenching titration
Format: binding
Set-up: unit not given here
RUN CONDITIONS: 1 μM HSA, 0-50 μM complexes
QUANTITY MEASURED: KSV (Stern–Volmer quenching constant)
One number for each entry.

Please look at the items below and tell me KSV (Stern–Volmer quenching constant) for each one, in order.
1. [Cl][Pt][Cl].c1ccc(-c2nc3ccc(-c4ccc5nc(-c6ccccn6)c(-c6ccccn6)nc5c4)cc3nc2-c2ccccn2)nc1
2. [Cl][Cu][Cl].c1ccc(-c2nc3ccc(-c4ccc5nc(-c6ccccn6)c(-c6ccccn6)nc5c4)cc3nc2-c2ccccn2)nc1
3. [Cl][Cu][Cl].c1csc(-c2nc3ccc(-c4ccc5nc(-c6cccs6)c(-c6cccs6)nc5c4)cc3nc2-c2cccs2)c1
4. [Cl][Pt][Cl].c1csc(-c2nc3ccc(-c4ccc5nc(-c6cccs6)c(-c6cccs6)nc5c4)cc3nc2-c2cccs2)c1

Completion:
0.0261
0.0059
0.0720
0.0589

* * *

I'd be grateful if you could share measured ΔG^o (standard Gibbs free energy change) for these entries.
TEST TARGET: human serum albumin (HSA) (Homo sapiens)
MEASUREMENT DESCRIPTION: UV titration with HSA
RUN CONDITIONS: binding to HSA, 310-340 K
Answers are plain numbers, in J.

The cases that follow already have their ΔG^o (standard Gibbs free energy change) on record.
STRUCTURE | UNIT DESCRIPTOR | ΔG^o (standard Gibbs free energy change)
[Cl][Pt][Cl].c1csc(-c2nc3ccc(-c4ccc5nc(-c6cccs6)c(-c6cccs6)nc5c4)cc3nc2-c2cccs2)c1 | J | -28600
[Cl][Cu][Cl].c1ccc(-c2nc3ccc(-c4ccc5nc(-c6ccccn6)c(-c6ccccn6)nc5c4)cc3nc2-c2ccccn2)nc1 | J | -19800
[Cl][Pt][Cl].c1ccc(-c2nc3ccc(-c4ccc5nc(-c6ccccn6)c(-c6ccccn6)nc5c4)cc3nc2-c2ccccn2)nc1 | J | -31400

Turning to the following molecule.
Prompt: Form field: reported ΔG^o (standard Gibbs free energy change) of [Cl][Cu][Cl].c1csc(-c2nc3ccc(-c4ccc5nc(-c6cccs6)c(-c6cccs6)nc5c4)cc3nc2-c2cccs2)c1
Completion: -27900

* * *

Tested on: A172 cells
MEASUREMENT DESCRIPTION: MTT cell viability assay
Assay type: cell-based, human
RUN CONDITIONS: A172, 72 h exposure
QUANTITY MEASURED: IC50 (µM)
One number for each entry, in µM.

COMPOUND | TEST TARGET | MEASURED VALUE
[Cl][Pt][Cl].c1ccc(-c2nc3ccc(-c4ccc5nc(-c6ccccn6)c(-c6ccccn6)nc5c4)cc3nc2-c2ccccn2)nc1 [Pt(tpbq)Cl2] | A172 cells | 73.7

Each compound below has a recorded value; state its IC50.
1. [Cl][Cu][Cl].c1csc(-c2nc3ccc(-c4ccc5nc(-c6cccs6)c(-c6cccs6)nc5c4)cc3nc2-c2cccs2)c1 [Cu(ttbq)Cl2]
2. [Cl][Cu][Cl].c1ccc(-c2nc3ccc(-c4ccc5nc(-c6ccccn6)c(-c6ccccn6)nc5c4)cc3nc2-c2ccccn2)nc1 [Cu(tpbq)Cl2]
3. [Cl][Pt][Cl].c1csc(-c2nc3ccc(-c4ccc5nc(-c6cccs6)c(-c6cccs6)nc5c4)cc3nc2-c2cccs2)c1 [Pt(ttbq)Cl2]

Completion:
1: 57.4; 2: 92; 3: 49.5

* * *

System: CHO-K1 cells
MEASUREMENT DESCRIPTION: MTT cell viability assay (non-cancer control)
Type: cell-based, Chinese hamster
RUN CONDITIONS: CHO-K1, 72 h exposure
QUANTITY MEASURED: IC50

STRUCTURE | IC50
[Cl][Cu][Cl].c1csc(-c2nc3ccc(-c4ccc5nc(-c6cccs6)c(-c6cccs6)nc5c4)cc3nc2-c2cccs2)c1 | > 100 µM
[Cl][Pt][Cl].c1ccc(-c2nc3ccc(-c4ccc5nc(-c6ccccn6)c(-c6ccccn6)nc5c4)cc3nc2-c2ccccn2)nc1 | 77.5 µM
[Cl][Cu][Cl].c1ccc(-c2nc3ccc(-c4ccc5nc(-c6ccccn6)c(-c6ccccn6)nc5c4)cc3nc2-c2ccccn2)nc1 | > 100 µM

Lab note: next compound to report on.
Prompt: I'd like to know its IC50. The compound in question is [Cl][Pt][Cl].c1csc(-c2nc3ccc(-c4ccc5nc(-c6cccs6)c(-c6cccs6)nc5c4)cc3nc2-c2cccs2)c1
Completion: > 100 µM
